STUDY TARGET: EBNA2_(381–389) peptide with an additional Gly-Tyr dipeptide at the C-terminus (NH2-[…]-CONH2) (Epstein-Barr virus, strain B95-8, C-terminal amide (CONH2))
MEASUREMENT PROTOCOL: ITC
MEASURE: pKd
Give bare numbers, as −log10 of the molar value.

Lookup: Quote pKd reported for QTKKKQWCYNCEEEAMAHCCWNTSYCSIKCQQEHWHAEHKRTCRRKR (domain or fragment) [BS69_(MYND) Y532A] please.
Found: 4.19
